Recorded values, source patent US5616575A.

# EXPERIMENTAL_TARGET: 5-HT transporter (Homo sapiens)
# Construct: from tissue; host or cells: human occipital cortex membranes
# EXPERIMENT_SUMMARY: Full competition experiments at the 5-HT transporter in human occipital cortex ([125I]RTI55)
# Assay type: binding
# CONDITION_DESCRIPTION: human occipital cortex; 0.01 nM [125I]RTI55; mean ± S.D.
VALUE_TYPE: nH

>>> value_measured("CCC1CC2CC3c4[nH]c5ccc(O)cc5c4CCN(C2)C13 (stereo not shown) [Noribogaine, 12-hydroxyibogamine, reference compound]")
"0.78 ± 0.06"
>>> value_measured("CCN1CCc2c(sc3ccccc23)C(c2cccc(Br)c2)C1 (stereo not shown) [Compound 7c]")
"1.2 ± 0.2"
>>> value_measured("CCN1CCc2c(sc3ccccc23)C(c2cccc([N+](=O)[O-])c2)C1 (stereo not shown) [Compound 7b]")
"1.0 ± 0.2"
>>> value_measured("CCN1CCc2c(sc3ccccc23)C(c2ccccc2)C1 (stereo not shown) [Compound 7a]")
"1.0 ± 0.1"

----------
# EXPERIMENTAL_TARGET: kappa-1 receptor (Homo sapiens, UniProt P41145)
# Construct: from tissue; host or cells: human insular cortex membranes
# EXPERIMENT_SUMMARY: Competition binding at the kappa-1 receptor of human insular cortex ([3H]U693593)
# CONDITION_DESCRIPTION: IC50, human insular cortex; NS = 10 μM Naloxone; mean ± S.D.
VALUE_TYPE: IC50 (µM)

>>> value_measured("CCN1CCc2c(sc3ccccc23)C(c2cccc(Br)c2)C1 (centres unmarked)")
117
>>> value_measured("CCN1CCc2c(sc3ccccc23)C(c2ccccc2)C1 (centres unmarked)")
17.2
